- experimentalProtocol: Lipophilicity, log D of the compound
- Assay type: physicochemical
- runConditions: octanol/water
measuredParameter: logD
Hey, just send me the number, nothing else.

Supply measured logD of "COC(=O)Nc1cc(-c2c(C3CC3)n[nH]c2C)cc2[nH]ncc12" in your reply.
3.1

###

- experimentalProtocol: Fraction unbound in mouse plasma
- Assay type: ADME, cell-free
measuredParameter: fraction unbound
Hey, just send me the number, nothing else.

Supply measured fraction unbound of "COC(=O)Nc1cc(-c2c(C3CC3)n[nH]c2C)cc2[nH]ncc12" in your reply.
0.24

###

- experimentalProtocol: Tmax in C57BL/6J mouse at 30 mg/kg, po by LC-MS/MS analysis
- Assay type: ADME, organism-based
- runConditions: in vivo
measuredParameter: Tmax (min)
The answer is to be given in min; state only the numeric part.

Supply measured Tmax of "COC(=O)Nc1cc(-c2c(C3CC3)n[nH]c2C)cc2[nH]ncc12" in your reply.
40.2

###

- Test system: HepG2
- experimentalProtocol: Inhibition of human recombinant BMP6-stimulated hepcidin mRNA expression in human HepG2 cells after 6 hrs by qRT-PCR analysis
- Format: functional, cell-based
- runConditions: HepG2, 6 h
pIC50: −log10 of the molar value.
# if value of pIC50 reaches 6, tag yes; if it stays below, tag no

[[record]]
chemicalstructure = "COCc1n[nH]c(C)c1-c1cc(NC(=O)OC)c2cn[nH]c2c1"
assignedcategory = "no"

[[record]]
chemicalstructure = "Cc1[nH]nc(C2CC2)c1-c1cc(N)c2cn[nH]c2c1"
assignedcategory = "no"

[[record]]
chemicalstructure = "CCC(=O)Nc1cc(-c2c(C3CC3)n[nH]c2C)cc2[nH]ncc12"
assignedcategory = "yes"


Is the recorded value of pIC50 equal to or greater than 6 for this compound? "Cc1[nH]nc(C2CC2)c1-c1ccc2c(-c3ccc(N4CCN(C)CC4)nc3)n[nH]c2c1"
yes

Is the recorded value of pIC50 equal to or greater than 6 for this compound? "COC(=O)Nc1cc(-c2c(C(C)C)n[nH]c2C)cc2[nH]ncc12"
yes

Is the recorded value of pIC50 equal to or greater than 6 for this compound? "Cc1[nH]nc(C2CC2)c1-c1ccc2cn[nH]c2c1"
no

###

- experimentalProtocol: Cmax in C57BL/6J mouse at 30 mg/kg, po by LC-MS/MS analysis
- Assay type: ADME, organism-based
- Design: dose 30 mg/kg, route oral
- runConditions: in vivo
measuredParameter: Cmax (ng/mL)
The answer is to be given in ng/mL; state only the numeric part.

Supply measured Cmax of "COC(=O)Nc1cc(-c2c(C3CC3)n[nH]c2C)cc2[nH]ncc12" in your reply.
4940

###

- Test system: HepG2
- experimentalProtocol: Inhibition of human recombinant BMP6-stimulated hepcidin mRNA expression in human HepG2 cells after 6 hrs by qRT-PCR analysis
- Assay type: functional, cell-based
- runConditions: HepG2, 6 h
In this section we review reported IC50 values for a set of molecules.
The answer is to be given in nM; state only the numeric part.

[[record]]
chemicalstructure = "CCc1n[nH]c(C)c1-c1cc(NC(=O)OC)c2cn[nH]c2c1"
targetentity = "HepG2"
measuredparameter = "IC50"
unitofmeasure = "nM"
measvalue = 180


Supply measured IC50 of "Cc1[nH]nc(C2CC2)c1-c1ccc2c(-c3ccncc3)n[nH]c2c1" in your reply.
2600
